Target: T1, human gpr-54 receptor (human, UniProt Q969F8 1-398)
T1 construct: whole, on cells; CHO cells stably expressing the human gpr-54 receptor came from Prof; G. Vassart; also called kisspeptin receptor; AXOR12
T1 sequence (Q969F8 whole entry): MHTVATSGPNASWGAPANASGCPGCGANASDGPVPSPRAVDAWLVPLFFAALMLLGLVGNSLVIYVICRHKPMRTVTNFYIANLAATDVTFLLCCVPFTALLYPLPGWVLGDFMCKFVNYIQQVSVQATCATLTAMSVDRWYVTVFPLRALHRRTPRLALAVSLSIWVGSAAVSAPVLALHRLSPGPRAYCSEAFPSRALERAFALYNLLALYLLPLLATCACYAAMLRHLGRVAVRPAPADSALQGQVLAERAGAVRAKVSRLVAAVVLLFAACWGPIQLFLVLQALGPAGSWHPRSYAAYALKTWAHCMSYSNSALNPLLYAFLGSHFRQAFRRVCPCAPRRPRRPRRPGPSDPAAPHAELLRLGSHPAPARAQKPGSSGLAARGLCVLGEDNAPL
Assay: whole-cell competition binding against 125I-kisspeptin, CHO cells stably transfected with GPR54 (CPM); the fall of the curve lies between Total and -10 LogM [201]
recorded.endpoint: pIC50
pIC50 (log units): -log10 of the concentration in mol/L.

Exercise: Bench note: what pIC50 did Ac-FGARW-NH2 (kisspeptin-10 analogue; also called acFGARW) [201] show?
Key: 11.36

Reference source: patent US20110046068A1
